# TARGET DESC: T1, human TNFR2 (human, UniProt P20333 23-461)
# T1 construct: expressed on the surface of CHO cells; also called HuTNFR2; TNFRSF1B
# T1 sequence: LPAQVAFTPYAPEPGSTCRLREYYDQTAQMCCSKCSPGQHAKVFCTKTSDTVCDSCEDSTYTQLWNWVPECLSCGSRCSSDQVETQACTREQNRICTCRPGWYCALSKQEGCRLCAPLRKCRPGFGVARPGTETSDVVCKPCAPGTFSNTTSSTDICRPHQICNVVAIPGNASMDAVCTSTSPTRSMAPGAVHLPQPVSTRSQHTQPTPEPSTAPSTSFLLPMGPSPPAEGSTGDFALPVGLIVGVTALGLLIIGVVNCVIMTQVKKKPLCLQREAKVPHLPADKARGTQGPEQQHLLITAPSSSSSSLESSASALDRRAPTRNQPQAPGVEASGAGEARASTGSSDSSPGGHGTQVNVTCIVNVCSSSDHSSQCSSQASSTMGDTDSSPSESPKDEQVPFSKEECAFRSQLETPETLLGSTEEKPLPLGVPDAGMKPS
# PROCEDURE TEXT: binding to human TNFR2 CHO cells

{"BINDER": "IgG 2044 (antibody, name in Kabat numbering, V domains shown, IgG) VH: QVQLVQSGAEVKKPGASVKVSCKVSGFSFPSSGVDWVRQAPGQGLEWLGVTFQEGSTHYNQKFQGRVTITKDTSKSTVYMELSSLRSEDTAVYYCASGEQDEGFVYWGQGTLVTVSS VL: DIQLTQSPSFLSASVGDRVTITCKASQNVGTAVAWYQQKPGKAPKLLIYAASTLQSGVPSRFSGSGSGTEFTLTISSLQPEDFATYYCLQYSSYPLTFGGGTKVEIKR", "binding result": "no binding"}
{"BINDER": "IgG 2038 (antibody, name in Kabat numbering, V domains shown, IgG) VH: QVQLVQSGAEVKKPGASVKVSCKVSGFSFPSSGVDWVRQAPGQGLEWLGVTRGEGSTHYNQKFQGRVTITKDTSKSTVYMELSSLRSEDTAVYYCASGEHDEGFVYWGQGTLVTVSS VL: DIQLTQSPSFLSASVGDRVTITCKASQNVGTAVAWYQQKPGKAPKLLIYAASTLQSGVPSRFSGSGSGTEFTLTISSLQPEDFATYYCLQYSSYPLTFGGGTKVEIKR", "binding result": "no binding"}
{"BINDER": "IgG 1972 (antibody, name in Kabat numbering, V domains shown, IgG) VH: QVQLVQSGAEVKKPGASVKVSCKVSGFSFPSSGVDWVRQAPGQGLEWLGVTHGSGSTHYNQKFQGRVTITKDTSKSTVYMELSSLRSEDTAVYYCASGEQDEGFVYWGQGTLVTVSS VL: DIQLTQSPSFLSASVGDRVTITCKASQNVGTAVAWYQQKPGKAPKLLIYAASTLQSGVPSRFSGSGSGTEFTLTISSLQPEDFATYYCQQYSSYPLTFGGGTKVEIKR", "binding result": "no binding"}

Where these numbers come from: patent US20230406951A1
